- assay summary: Pharmacokinetic study, 4ET-03-009 at 10 mg/kg oral
- Type: in vivo, CD-1 male mice
- assay setup: male, CD-1, mouse, plasma, oral, 10 mg/kg, 2 hours, mean n = 3, read-out: Plasma Conc. Mean
experimental readout: concentration at 2 h (ng/mL)
# value in ng/mL; strip the unit string

Returns the measured concentration at 2 h for the input compound. Input: "Cc1cc(Nc2cc(NC(=O)C3CC3)ncn2)c(=O)n2c1C(=O)NC21CCOCC1"
255

----------
- assay summary: Pharmacokinetic study, 4ET-03-009 at 20 mg/kg oral
- Type: in vivo, CD-1 male mice
- assay setup: male, CD-1, mouse, plasma, po, 20 mg/kg, Mean (n = 3), read-out: AUClast
- Experimental: Compound 4ET-03-009 was dissolved in a 10% dimethylacetamide (DMA)/3000 polyethylene glycol (PEG) 300/400% propylene glycol (PG)/200% water solvent. […] Plasma was collected at indicated timepoints and plasma concentration of compound 4ET-03-009 was measured using liquid chromatography-mass spectrometry/mass spectrometry (LC-MS/MS). Results are presented in FIG. 1 and Tables 3, 4, and 5. […]
experimental readout: AUC(0-t) (ng·h/mL)
# value in ng·h/mL; strip the unit string

Returns the measured AUC(0-t) for the input molecule. Input: "Cc1cc(Nc2cc(NC(=O)C3CC3)ncn2)c(=O)n2c1C(=O)NC21CCOCC1"
2240
